Target: Left-right determination factor 2 (Homo sapiens) (UniProt O00292)
Sequence (O00292 whole entry, looked up): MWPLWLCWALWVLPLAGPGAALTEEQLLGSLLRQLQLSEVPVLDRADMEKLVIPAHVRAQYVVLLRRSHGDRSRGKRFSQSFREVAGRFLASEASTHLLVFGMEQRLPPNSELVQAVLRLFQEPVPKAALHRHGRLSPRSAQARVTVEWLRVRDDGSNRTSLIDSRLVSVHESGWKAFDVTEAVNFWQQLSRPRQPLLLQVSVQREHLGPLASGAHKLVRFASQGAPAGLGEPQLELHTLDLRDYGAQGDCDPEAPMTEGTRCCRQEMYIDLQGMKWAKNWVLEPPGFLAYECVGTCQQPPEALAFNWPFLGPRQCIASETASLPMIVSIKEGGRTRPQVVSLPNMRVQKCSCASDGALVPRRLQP
Assay: LEFTY2 binders on small-molecule microarrays, primary screen, biochemical, small-molecule microarray, 635 nm fluorescence scan (AID 1110)
Conditions: LEFTY2 binding, higher = more signal
Field: composite z-score. Provide a value for each of the compounds that follow.
Numbers only.

Example results:
>>> number("CCOC(=O)CCN1C(=O)[C@H]2[C@H]3[C@H](O)[C@H](O)CC(=NOCC(C)C)[C@H]3CC[C@H]2C1=O")
0.0607
>>> number("CC(=O)OC[C@H]1O[C@H](CCON=C2[C@H]3CCn4c(=O)n(-c5ccccc5)c(=O)n4[C@H]3[C@H](O)[C@@H]3O[C@H]23)C=C[C@@H]1OC(C)=O")
0.5
>>> number("COC(=O)[C@H]1O[C@@H](c2c(OC)c(OC)c(C)c(OC)c2OC)[C@H](C)[C@@H](O)[C@H]1C")
0.685
>>> number("O=C1[C@H]2[C@H]3[C@H](O)[C@H](O)CC(=NOC[C@@H](O)COCc4ccco4)[C@H]3CC[C@H]2C(=O)N1Cc1ccccc1")
0.665
>>> number("C=C(C)C(=O)OCC1CN2[C@@H](CC[C@@H](C)[C@@H]2c2ccc(Br)cc2)C(=O)O1 (stereo partly specified)")
0.501
>>> number("O=C(C=Cc1ccc2c(c1)OCO2)c1ccc(F)cc1")
0.976
>>> number("CCN1C(=O)[C@H]2[C@H]3[C@H](O)[C@H](O)CC(=O)[C@H]3CC[C@H]2C1=O")
0.872
>>> number("CCOC(=O)CCN1C(=O)[C@H]2[C@H]3[C@H](O)[C@H](O)CC(=NNC(=O)OCc4ccccc4)[C@@H]3CC[C@H]2C1=O")
0.929

Report composite z-score for every entry below.
1. CCC(=O)[C@@]1(O)C(=O)N2C(=C3C(=O)OCC[C@@H]31)N(Cc1ccccc1)C(C)=C(C(=O)OC)[C@H]2c1ccccc1
2. CC=CC1=C(CO)C(=O)[C@@H]2O[C@@H]2C1=O
3. CCOC(=O)[C@H](CC(C)C)NC(=O)CCC1CC(OC(=O)NCCc2ccc(F)cc2)CC2(CCCC(COC(=O)NCCc3ccc(Cl)cc3)O2)O1 (stereo partly specified)
4. COc1cccc([C@H]2Oc3ccc(OC)cc3C(=NOC[C@@H](C)[C@H](OCc3ccccc3)C(C)C)[C@@H]2O)c1
5. CCN1C(=O)[C@@H]2[C@H]3C(=CC[C@@H]2C1=O)C1(OCCCO1)[C@H]1O[C@H]1[C@H]3O
6. COc1ccc(O[C@H]2C=C[C@@H](c3ccccc3)O[C@@H]2CON=C(C)CCN2CCc3nc(-c4ccccc4)c(-c4ccccc4)cc3C2)cc1
7. CCCCC#C[C@@H]1C=C[C@H](Oc2ccc(C(=O)OC)cc2)[C@@H](COC(=O)OCC)O1

1. 0.366
2. 1.27
3. 0.839
4. 0.476
5. 0.352
6. -0.417
7. 0.494

Look at this compound and give its reported composite z-score. CO[C@H]1COC(=O)CCC[C@@H](C)[C@H](OC)COC(=O)[C@@H](C)NC(=O)CC=C[C@@H]1C
1.19

---

Assay: small-molecule microarray binders of probe aLefty2, primary screen, biochemical, biotinylated probe, 635/667 nm fluorescence (AID 1094);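 note: score merges spot fluorescence near 667 nm with spot signal-to-noise ratio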
Conditions: higher = more signal
Endpoint Name: composite z-score

Example results:
>>> result("CC(=O)Nc1ccc([C@@H]2N[C@H](C(=O)O)CC[C@H]2C)cc1")
-0.139
>>> result("COC(=O)CC=C[C@@H](C)[C@@H](C=NOC[C@H]1O[C@H](c2ccccc2)C=C[C@@H]1Oc1ccc(OC)cc1)OC")
-0.258
>>> result("CO[C@@H]1COC(=O)[C@@H]2CCCN2C(=O)[C@@H](C)COC(=O)CC=C[C@H]1C")
-0.0438
>>> result("CO[C@@H]1COC(=O)CC=C[C@@H](C)[C@H](OC)COC(=O)[C@@H](C)COC(=O)CC=C[C@H]1C")
-0.317

Report composite z-score for every entry below.
1. C=CC[C@@H]1C=C[C@H](ON=C2[C@H]3CCn4c(=O)n(-c5ccccc5)c(=O)n4[C@H]3[C@H](O)[C@@H]3O[C@H]23)[C@@H](CO)O1
2. CCOC(=O)[C@H](Cc1ccccc1)NC(=O)CCC1CC(OC(=O)NCCc2ccc(F)cc2)CC2(CCCC(COC(=O)NCCc3ccc(Cl)cc3)O2)O1 (some centres not stated)
3. COC(=O)CC=C[C@@H](C)[C@@H](C=NOCC[C@@H]1C=C[C@H](OC(C)=O)[C@@H](COC(C)=O)O1)NS(=O)(=O)c1ccc(C)cc1

[-0.257, -0.174, 0.135]

All figures here come from PubChem BioAssay.
